Assay summary: yeast display, Sf9 membrane polyspecificity reagent, FACS + sequencing; frameworks hold sequencing errors
Readout type: polyreactivity (PSR sort gate)

Record excerpt, results attached:
>  <Sequence record>
QVQLVDSGGGLVQAGGSLRISCAASGSTFSINTMGTYRQAPGKERELVAAITTRGSSTYYADSVKGRFTISRDNAKNTVYLKMNSLKPEDTAVYYFNAPYRVTGGRYRWYDYWGQATQVTVSS

>  <polyreactivity (PSR sort gate)>
high polyreactivity

$$$$
>  <Sequence record>
QVQLVESGGGLVQAGGSLRLSCAASGSTFATYAMGWYRQAPGKERELVAAIRVSGGTTYADSVKGRFTISRDNAKNTVYLQMNSLKPEDNAVYYCAATGWEVYDIFDYWVQGTQVTVSS

>  <polyreactivity (PSR sort gate)>
low polyreactivity

$$$$
>  <Sequence record>
QVQLVESGGGLVQAGGSLRLSCSASGGTFRYYTMVWYRKAPGKERELVAAITRGGRTYYADSVKGRFTISRDNAKNTVYLQMNSLKPEDTAVYYCAAVRPRSPVSYENDYWGQGTQVTVSS

>  <polyreactivity (PSR sort gate)>
high polyreactivity

$$$$
>  <Sequence record>
QVQLVESGGGLVQSGGSLRLSCAASGSIFIYYAMGWYRHAPGKERELVAAIDYSGDSTYYADSVKGRFTISRDNAKNTVYLQMNSLKPEDTAVYDCAVYYAGWGDYWGQGTQVTVSS

>  <polyreactivity (PSR sort gate)>
low polyreactivity

$$$$

Moving on to the next sequence.
Record summary for QVQLVESGGGLVQAGGSLRLSCAASGRTFGSYAMAWYRQAPGKERELVAAITWSGTGTYYADSVKGRFTISRDNAKNTVYLQMKSLKPEVTAVYYCAARYASGRRGEYWGQGTQVTVSS : reported polyreactivity (PSR sort gate) = high polyreactivity

###

Assay summary: yeast display, Sf9 membrane polyspecificity reagent, FACS + sequencing; frameworks hold sequencing errors
Readout type: polyreactivity (PSR sort gate)

>  <Sequence record>
QVQLVESGGGLVQAGGSLRLSCAASGRIFRKNARGWYRQAPGKEREFVAAIRLSGGRTFYADSVKGRFTISRDNAKNTVYLQMNSLKPEDTAVYYCAAETVNGKHDYWGQGTQVTVSS

>  <Readout type>
polyreactivity (PSR sort gate)

>  <Result>
high polyreactivity

$$$$
>  <Sequence record>
QVQLVESGGGLVQAGGSLRLSCAASGSTYGIYAMGWYRQAPGKERELVAAISSGGSTNYADSVKGRFTISRDNAKNTVYLQMNSLKPEDTAVYYCAVESVYEYGGYVDSAYDYWGQGTQVTVSS

>  <Readout type>
polyreactivity (PSR sort gate)

>  <Result>
low polyreactivity

$$$$
>  <Sequence record>
QVQLVESGGGLVQAGGSLRLSCAASGFTFSSYTMGWYRQAPGKEREFVAAISRRTGRTYYADSVKGRFTISRDYAKNTVYLQMNSLKPEDTAVFYCAADLYYYGFFWDFGDGFDYWGQGTQVTVSS

>  <Readout type>
polyreactivity (PSR sort gate)

>  <Result>
high polyreactivity

$$$$
>  <Sequence record>
QAQLQESGGSLVQAGGGLRLSCAASGYSSVGSVMGWYRQAPSKEREHVASIDQGANTNYADSVKGRFTISRDNAKNNVYLQMTSLKPEDTAVYYCATETTYILNYWGQGTQVTVSS

>  <Readout type>
polyreactivity (PSR sort gate)

>  <Result>
low polyreactivity

$$$$

Record summary for QVQLVESGGGLVQAGGSLRLSCAASGSTFGPYAMGWYRQAHGKVRELVAAITESGDSTYYADSVKGRFTISRDNAKNTVYLQMNSLKPEDTAVYYCAAEFYGDKMDYWGQGTQVTVSS : reported polyreactivity (PSR sort gate) = low polyreactivity

Record summary for QVQLVESGGGLVQAGGSLRLSCAASGFNFVRYAMGWYRQAPRKERELVAAITRRGGSTHYADSVKGRFTISRDNAKNTVYLQMNSLKPEDTAVYYCGAGRQYYYLDRFPRVQGDYWGQATQVTVSS : reported polyreactivity (PSR sort gate) = high polyreactivity
